Record: compiled pIC50 on human mPGES-1 (Homo sapiens, UniProt O14684) from multiple reports.
Sequence (O14684 whole entry): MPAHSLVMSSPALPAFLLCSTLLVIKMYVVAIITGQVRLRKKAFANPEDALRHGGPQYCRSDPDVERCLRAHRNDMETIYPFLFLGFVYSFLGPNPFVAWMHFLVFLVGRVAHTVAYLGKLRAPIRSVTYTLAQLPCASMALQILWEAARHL
To interpret pIC50, take it as minus log10 of a concentration measured in moles per litre.

So, COc1cc(Cl)ccc1CCS(=O)(=O)Nc1ccc(CO)cc1S(N)(=O)=O ? Its pIC50 was 6.48

So, CC(C)C#Cc1ccc(C(=O)NS(=O)(=O)c2ccccc2S(N)(=O)=O)cc1 ? Its pIC50 was 7.10

So, N#Cc1ccc(NS(=O)(=O)CCc2ccc(Cl)c(Cl)c2)c(S(N)(=O)=O)c1 ? Its pIC50 was 5.60

So, CO[C@](C)(C(=O)NC(C)c1ccc(Cl)c(-c2nc(O)nc(-c3ccc(F)c(C)c3)n2)c1)C(F)(F)F (single isomer, unassigned) ? Its pIC50 was 5.96

So, NS(=O)(=O)c1ccccc1NS(=O)(=O)/C=C/c1c(F)cccc1F ? Its pIC50 was 5.04

So, NS(=O)(=O)c1ccccc1S(=O)(=O)NC(=O)c1ccc(-c2cc3ccccc3o2)cc1F ? Its pIC50 was 7.38

So, Cc1cc(-c2cc3ccccc3o2)cc(C)c1C(=O)NS(=O)(=O)c1ccccc1S(N)(=O)=O ? Its pIC50 was 6.35

So, CCOc1ccc(-c2nc(O)nc(-c3cc(CNC(=O)C(C)(C)C(F)(F)F)ccc3Cl)n2)c(C)c1 ? Its pIC50 was 8.89

So, CC(C)(C(=O)NCc1ccc(Cl)c(-c2nc(O)nc(-c3ccc(OCCC(F)(F)F)cc3)n2)c1)C(F)(F)F ? Its pIC50 was 9.30

So, CN(CCc1ccc(Cl)c(-c2nc(O)nc(-c3ccc(OCC(C)(C)C)cc3)n2)c1)C(=O)C(C)(C)C(F)(F)F ? Its pIC50 was 7.30

So, CC1(C)CCCN(Cc2ccc(Cl)c(-c3nc(O)nc(-c4ccccc4)n3)c2)C1=O ? Its pIC50 was 6.56

So, Oc1nc(-c2ccc(C#CC3CCCCC3)cc2)nc(-c2c(Cl)cccc2OCc2ccccn2)n1 ? Its pIC50 was 8.24

So, COCc1nc2c(C(=O)Nc3ccc4[nH]ccc4c3)cc(NC(=O)c3ccccc3C(F)(F)F)cc2[nH]1 ? Its pIC50 was 7.58

So, CCCCNC(=O)c1cc(-c2nc(O)nc(-c3ccc(OCC4CC4)cc3)n2)c(Cl)cc1C ? Its pIC50 was 7.39

So, CC1(C)C(=O)N(Cc2ccc(Cl)c(-c3nc(O)nc(-c4ccccc4)n3)c2)c2ccccc21 ? Its pIC50 was 5.72
